Quick reference for Kd among some molecules
biological target: S100B (Homo sapiens); test: direct fluorescence polarization (FP), S100B; settings: 50 nM labeled foldamer, 20 mM HEPES pH 7.5, 150 mM NaCl, 1 mM CaCl2, 0.5 mM TCEP, 0.01% Tween20, quadratic fit, mean ± SEM, three technical repeats, threshold 1 mM

[
  {
    "Molecule": "CC(C)C[C@@H](CC(=O)N[C@H]1CCCC[C@@H]1C(=O)NCC(=O)N[C@@H](CCCCNC(=O)c1ccc2c(c1)C1(OC2=O)c2ccc(O)cc2Oc2cc(O)ccc21)C(N)=O)NC(=O)[C@H]1CCCC[C@@H]1NC(=O)[C@H]1CCCC[C@@H]1NC(=O)C[C@H](Cc1c[nH]c2ccccc12)NC(=O)[C@H]1CCCC[C@@H]1N [fWL]",
    "Kd": "11 µM"
  },
  {
    "Molecule": "NC(=O)[C@H](CCCCNC(=O)c1ccc2c(c1)C1(OC2=O)c2ccc(O)cc2Oc2cc(O)ccc21)NC(=O)CNC(=O)[C@H]1CCCC[C@@H]1NC(=O)C[C@H](Cc1c[nH]c2ccccc12)NC(=O)[C@H]1CCCC[C@@H]1NC(=O)[C@H]1CCCC[C@@H]1NC(=O)C[C@H](Cc1c[nH]c2ccccc12)NC(=O)[C@H]1CCCC[C@@H]1N [fWW]",
    "Kd": "> 1000 µM"
  },
  {
    "Molecule": "CC[C@H](C)[C@@H](CC(=O)N[C@H]1CCCC[C@@H]1C(=O)NCC(=O)N[C@@H](CCCCNC(=O)c1ccc2c(c1)C1(OC2=O)c2ccc(O)cc2Oc2cc(O)ccc21)C(N)=O)NC(=O)[C@H]1CCCC[C@@H]1NC(=O)[C@H]1CCCC[C@@H]1NC(=O)C[C@@H](NC(=O)[C@H]1CCCC[C@@H]1N)[C@@H](C)O [fTI]",
    "Kd": "> 1000 µM"
  }
]

====

molecular target: S100B (Homo sapiens, UniProt P04271); assay: direct fluorescence polarization (FP), S100B; details: 50 nM labeled foldamer, 20 mM HEPES pH 7.5, 150 mM NaCl, 1 mM CaCl2, 0.5 mM TCEP, 0.01% Tween20, quadratic fit, mean ± SEM, three technical repeats, threshold 1 mM
Sequence (P04271 whole entry): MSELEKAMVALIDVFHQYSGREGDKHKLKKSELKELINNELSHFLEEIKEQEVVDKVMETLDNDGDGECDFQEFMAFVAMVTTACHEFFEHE

[
  {
    "Molecule": "N=C(N)NCCC[C@@H](CC(=O)N[C@H]1CCCC[C@@H]1C(=O)NCC(=O)N[C@@H](CCCCNC(=O)c1ccc2c(c1)C1(OC2=O)c2ccc(O)cc2Oc2cc(O)ccc21)C(N)=O)NC(=O)[C@H]1CCCC[C@@H]1NC(=O)[C@H]1CCCC[C@@H]1NC(=O)C[C@H](CCCNC(=N)N)NC(=O)[C@H]1CCCC[C@@H]1N [fRR]",
    "Kd": "210 µM"
  },
  {
    "Molecule": "C[C@@H](O)[C@@H](CC(=O)N[C@H]1CCCC[C@@H]1C(=O)N[C@H]1CCCC[C@@H]1C(=O)N[C@H](CC(=O)N[C@H]1CCCC[C@@H]1C(=O)NCC(=O)N[C@@H](CCCCNC(=O)c1ccc2c(c1)C1(OC2=O)c2ccc(O)cc2Oc2cc(O)ccc21)C(N)=O)Cc1c[nH]c2ccccc12)NC(=O)[C@H]1CCCC[C@@H]1N [fTW]",
    "Kd": "280 µM"
  },
  {
    "Molecule": "CC[C@H](C)[C@@H](CC(=O)N[C@H]1CCCC[C@@H]1C(=O)N[C@H]1CCCC[C@@H]1C(=O)N[C@H](CC(=O)N[C@H]1CCCC[C@@H]1C(=O)NCC(=O)N[C@@H](CCCCNC(=O)c1ccc2c(c1)C1(OC2=O)c2ccc(O)cc2Oc2cc(O)ccc21)C(N)=O)CC(C)C)NC(=O)[C@H]1CCCC[C@@H]1N [fIL]",
    "Kd": "63 µM"
  }
]
